# tgt: CYP450 2C9 (Homo sapiens)
# Sequence (P11712 whole entry): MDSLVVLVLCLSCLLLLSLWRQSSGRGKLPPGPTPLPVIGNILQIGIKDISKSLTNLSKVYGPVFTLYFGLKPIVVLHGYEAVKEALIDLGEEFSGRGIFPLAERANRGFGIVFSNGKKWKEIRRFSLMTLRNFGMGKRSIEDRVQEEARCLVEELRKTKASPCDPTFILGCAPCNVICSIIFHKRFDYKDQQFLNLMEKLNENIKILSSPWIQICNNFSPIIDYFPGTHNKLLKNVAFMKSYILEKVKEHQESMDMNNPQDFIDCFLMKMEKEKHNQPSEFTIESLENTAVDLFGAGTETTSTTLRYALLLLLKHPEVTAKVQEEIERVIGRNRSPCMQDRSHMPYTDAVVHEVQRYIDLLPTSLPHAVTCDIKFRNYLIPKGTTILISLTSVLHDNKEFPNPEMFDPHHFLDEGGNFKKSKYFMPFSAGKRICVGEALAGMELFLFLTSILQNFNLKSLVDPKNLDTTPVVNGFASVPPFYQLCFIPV
measured quantity: IC50

Problem: // returns reported IC50 for input `CNc1cc(Nc2cccn(-c3ccccn3)c2=O)nc2c(C(=O)N[C@@H]3CC[C@H]3OC)cnn12`
Result: > 30 µM

* * *

# protocol text: In vivo pharmacokinetics, dog
# applied conditions: plasma, 1 mg/kg; Dog; 1 mpk IV dose; read-out: Vss
measured quantity: Vd
Could you write the number and then its unit?

Problem: Bench note: what Vd did `CNc1cc(Nc2cccn(-c3ccccn3)c2=O)nc2c(C(=O)N[C@@H]3CC[C@H]3OC)cnn12` show?
Result: 4 L/kg

* * *

# tgt: CYP450 1A2 (Homo sapiens)
# Sequence (P05177 whole entry): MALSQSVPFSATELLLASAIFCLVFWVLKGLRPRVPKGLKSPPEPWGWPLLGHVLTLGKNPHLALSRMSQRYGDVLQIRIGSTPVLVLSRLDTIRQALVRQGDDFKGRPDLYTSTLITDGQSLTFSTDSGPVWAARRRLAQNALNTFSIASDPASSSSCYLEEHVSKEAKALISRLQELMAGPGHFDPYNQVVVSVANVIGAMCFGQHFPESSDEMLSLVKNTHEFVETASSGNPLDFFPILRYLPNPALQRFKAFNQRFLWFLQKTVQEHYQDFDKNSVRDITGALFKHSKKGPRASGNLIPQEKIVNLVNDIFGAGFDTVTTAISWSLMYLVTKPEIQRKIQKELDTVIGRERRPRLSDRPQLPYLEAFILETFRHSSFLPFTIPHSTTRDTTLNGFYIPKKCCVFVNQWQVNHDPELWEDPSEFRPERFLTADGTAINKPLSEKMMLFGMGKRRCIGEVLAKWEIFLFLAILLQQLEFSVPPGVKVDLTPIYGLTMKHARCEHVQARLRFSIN
measured quantity: IC50

Problem: Quick one: IC50 of `CNc1cc(Nc2cccn(-c3ccccn3)c2=O)nc2c(C(=O)N[C@@H]3CC[C@H]3OC)cnn12` ?
Result: > 30 µM
